# pIC50 listing for each entry below
Molecular target: hOCT1 (Homo sapiens, UniProt O15245)
Construct: gift of H. Koepsell
Sequence (O15245 1-554): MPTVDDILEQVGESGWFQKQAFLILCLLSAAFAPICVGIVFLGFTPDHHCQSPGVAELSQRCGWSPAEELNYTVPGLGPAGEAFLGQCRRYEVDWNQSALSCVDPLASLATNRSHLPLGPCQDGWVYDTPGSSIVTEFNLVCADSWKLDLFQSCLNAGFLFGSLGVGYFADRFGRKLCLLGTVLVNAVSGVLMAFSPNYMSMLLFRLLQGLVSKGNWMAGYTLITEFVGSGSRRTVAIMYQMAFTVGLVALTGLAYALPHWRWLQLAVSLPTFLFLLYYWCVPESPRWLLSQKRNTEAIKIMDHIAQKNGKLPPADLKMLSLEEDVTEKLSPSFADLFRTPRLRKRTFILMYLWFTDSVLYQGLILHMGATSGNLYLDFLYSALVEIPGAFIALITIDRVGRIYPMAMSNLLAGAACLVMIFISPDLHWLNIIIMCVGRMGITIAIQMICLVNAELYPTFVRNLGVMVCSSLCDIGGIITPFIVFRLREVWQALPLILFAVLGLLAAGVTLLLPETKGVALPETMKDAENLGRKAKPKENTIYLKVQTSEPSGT
Experiment: Inhibition of ASP+ uptake in HEK 293 cells expressing hOCT1
Conditions: HEK 293 hOCT1, 1 μM ASP+
Experimental: The interaction of phenanthriplatin with transporters for organic cations (OCT1-3, MATE1, and MATE2K) was investigated by measuring its effects on the uptake of the fluorescent organic cation 4-(4-dimethylamino)styryl-N-methylpyridinium (ASP^+). Microfluorometric measurements of ASP^+ uptake were performed with a fluorescence plate reader (Infinity 200, Tecan, Crailsheim, Germany; excitation at 465 nm, emission at 590 nm) as described previously for cultured HEK 293 cells (Wilde et al., [2009]). […]
Scale for pIC50: -log10 of concentration given in mol/L; no unit attached.

{"Compound": "N.N.[Cl][Pt+].c1ccc2c(c1)cnc1ccccc12 [phenanthriplatin, cis-[Pt(NH3)2Cl(phenanthridine)]^+]", "Value Kind": "pIC50", "Readout Value": 4.72}

API: the following record is the query input.
Short answer for N.N.[Cl][Pt][Cl] [cisplatin, reference compound] : pIC50 was 4.21
